System: TNF-alpha production by PBMC
Assay: TNF-alpha assay, LPS-stimulated PBMC, sandwich ELISA
Type: cell-based, human
Settings: Table 7; same conditions as example 26; read-out: TNFα IC50
RECORDED METRIC: pIC50
# pIC50 = -log10(concentration in molar units)

## Task I'd like to know its pIC50. The compound in question is `COc1cccc(-c2nc3c(=O)[nH]c(=O)n(C)c3nc2Cl)c1`
## Result 5.43

---

Tested on: IL-1 beta production by PBMC
Test: IL-1 beta assay, LPS-stimulated PBMC, sandwich ELISA
Format: cell-based, human
Conditions: Table 2; LPS 1 μg/ml, 72 hours; read-out: IL-1 IC50
Here the recorded pIC50 is given for each entry.
# pIC50 = -log10(concentration in molar units)

Solved cases below.
Cn1c(=O)[nH]c(=O)c2nc(-c3ccc(Cl)cc3)c(Cl)nc21 [Example 20] ... 6.40
Cn1c(=O)[nH]c2nc(Cl)c(-c3ccccc3)nc2c1=O [Example 6, 3-methyl-6-phenyl-7-chloro-lumazine] ... 6.40
COc1ccc(-c2nc3c(=O)[nH]c(=O)n(C)c3nc2Cl)cc1 [Example 15] ... 6.40
Cn1c(=O)[nH]c(=O)c2nc(-c3ccccc3)c(Cl)nc21 [Example 14, 1-methyl-6-phenyl-7-chloro-lumazine] ... 6.46

Field: next molecule
## Task I'd like to know its pIC50. The molecule in question is O=c1[nH]c(=O)n(-c2ccccc2)c2nc(Cl)c(-c3ccccc3)nc12 [Example 17, 1,6-diphenyl-7-chloro-lumazine]
## Result 6.70
